Organism: Homo sapiens
Protocol Details: Selectivity ratio of IC50 for human FBPase to IC50 for human GAPDH
The following compounds are listed with their measured Ratio IC50 values.
Value Type: Ratio IC50

COc1ccccc1CNC(=O)N1C(=O)c2ccccc2S1(=O)=O: > 25
COc1cccc(CNC(=O)N2C(=O)c3ccccc3S2(=O)=O)c1: > 25
O=C(NCc1ccccc1)N1C(=O)c2ccccc2S1(=O)=O: > 25
